experimental_system: androgen receptor (Homo sapiens, UniProt P10275, T878A)
Construct: host or cells: LNCaP.FGC
Sequence (P10275 whole entry T878A): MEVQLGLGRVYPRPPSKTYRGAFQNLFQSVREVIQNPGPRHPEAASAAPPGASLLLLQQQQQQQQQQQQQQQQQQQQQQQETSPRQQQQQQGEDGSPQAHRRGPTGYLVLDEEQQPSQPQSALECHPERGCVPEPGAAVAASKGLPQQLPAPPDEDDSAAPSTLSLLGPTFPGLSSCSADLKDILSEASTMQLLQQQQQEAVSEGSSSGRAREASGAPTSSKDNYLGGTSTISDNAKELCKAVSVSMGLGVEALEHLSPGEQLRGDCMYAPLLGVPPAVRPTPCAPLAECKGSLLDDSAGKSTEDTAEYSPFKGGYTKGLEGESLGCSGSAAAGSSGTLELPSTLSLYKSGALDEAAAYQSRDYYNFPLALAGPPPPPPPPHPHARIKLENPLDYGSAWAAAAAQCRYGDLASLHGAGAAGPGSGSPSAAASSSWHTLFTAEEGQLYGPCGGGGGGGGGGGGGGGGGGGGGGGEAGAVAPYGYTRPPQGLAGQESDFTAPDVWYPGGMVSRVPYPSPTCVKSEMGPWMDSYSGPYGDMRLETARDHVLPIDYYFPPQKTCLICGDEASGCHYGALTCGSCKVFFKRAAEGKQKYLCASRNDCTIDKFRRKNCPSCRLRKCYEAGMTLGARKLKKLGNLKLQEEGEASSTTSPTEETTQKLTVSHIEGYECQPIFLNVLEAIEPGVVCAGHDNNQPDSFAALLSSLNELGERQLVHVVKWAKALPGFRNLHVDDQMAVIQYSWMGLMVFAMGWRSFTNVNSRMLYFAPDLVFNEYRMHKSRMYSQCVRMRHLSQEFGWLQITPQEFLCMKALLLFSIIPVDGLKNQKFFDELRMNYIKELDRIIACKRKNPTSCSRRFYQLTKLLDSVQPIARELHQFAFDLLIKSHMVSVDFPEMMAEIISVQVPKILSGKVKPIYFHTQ
Sequence (Q96SW2 whole entry partner): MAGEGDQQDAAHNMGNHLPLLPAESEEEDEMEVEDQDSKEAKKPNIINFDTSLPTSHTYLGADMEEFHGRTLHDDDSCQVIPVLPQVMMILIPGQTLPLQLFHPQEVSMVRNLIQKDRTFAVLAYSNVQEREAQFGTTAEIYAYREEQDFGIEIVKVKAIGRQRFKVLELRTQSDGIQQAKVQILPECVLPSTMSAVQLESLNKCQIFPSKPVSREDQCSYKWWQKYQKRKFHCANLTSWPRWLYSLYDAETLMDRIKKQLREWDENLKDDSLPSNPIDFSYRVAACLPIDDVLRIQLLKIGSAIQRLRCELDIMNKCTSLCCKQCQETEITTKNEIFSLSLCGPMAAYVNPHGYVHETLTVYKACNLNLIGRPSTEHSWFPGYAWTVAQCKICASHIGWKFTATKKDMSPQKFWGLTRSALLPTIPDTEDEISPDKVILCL
method_summary: Androgen receptor degradation assay using Western blot analysis
Format: cell-based
study_conditions: LNCaP.FGC cells, serial 10x dilutions from 100 nM; read-out: AR DC50 (concentration needed for 50% AR degradation)
endpoint: DC50

Below, 4 compounds whose answers are already recorded.
| compound | DC50 |
| --- | --- |
| Cn1c2c(c3cccc(OCCCN4CCN(c5ccc(C(=O)N[C@H]6CC[C@H](Oc7ccc(C#N)c(Cl)c7)CC6)nn5)CC4)c31)C(=O)N(C1CCC(=O)NC1=O)C2=O (stereo partly drawn) | 0.025 to 0.1 µM |
| Cn1c2c(c3ccc(OC4CCN(CC5CN(c6ccc(C(=O)N[C@H]7CC[C@H](Oc8ccc(C#N)c(Cl)c8)CC7)nn6)C5)CC4)cc31)C(=O)N(C1CCC(=O)NC1=O)C2=O (stereo partly drawn) | 0.01 to 0.025 µM |
| CC(COc1ccc2c3c(n(C)c2c1)C(=O)N(C1CCC(=O)NC1=O)C3=O)CN1CCN(c2ccc(C(=O)N[C@H]3CC[C@H](Oc4ccc(C#N)c(Cl)c4)CC3)nn2)CC1 (stereo partly drawn) | 0.025 to 0.1 µM |
| Cn1c2c(c3ccc(OCCCN4CCN(c5ccc(C(=O)N[C@H]6C(C)(C)[C@H](Oc7ccc(C#N)c(Cl)c7)C6(C)C)cn5)CC4)cc31)C(=O)N(C1CCC(=O)NC1=O)C2=O (stereo partly drawn) | 0.01 to 0.025 µM |

-- ask For the compound shown here, Cn1c2c(c3ccc(NC(=O)CN4CCN(c5ccc(C(=O)N[C@H]6C(C)(C)[C@H](Oc7ccc(C#N)c(Cl)c7)C6(C)C)cn5)CC4)cc31)C(=O)N(C1CCC(=O)NC1=O)C2=O (stereo partly drawn) , give the reported DC50.
-- reply 0.01 to 0.025 µM

-- ask Follow-up item: Cn1c2c(c3ccc(OCCCN4CCN(c5ccc(C(=O)N[C@H]6CC[C@H](Oc7ccc(C#N)c(Cl)c7)CC6)nn5)CC4)cc31)C(=O)N(C1CCC(=O)NC1=O)C2=O (stereo partly drawn) [Compound 207]
-- reply < 0.01 µM

-- ask Then Cn1c2c(c3ccc(OCCOC4CC5(CCN(c6ccc(C(=O)N[C@H]7CC[C@H](Oc8ccc(C#N)c(Cl)c8)CC7)nn6)CC5)C4)cc31)C(=O)N(C1CCC(=O)NC1=O)C2=O (stereo partly drawn) ?
-- reply 0.025 to 0.1 µM

-- ask Continue with Cn1c2c(c3ccc(OC4CCN(CC5CCN(c6ccc(C(=O)N[C@H]7C(C)(C)[C@H](Oc8ccc(C#N)c(Cl)c8)C7(C)C)nn6)CC5)CC4)cc31)C(=O)N(C1CCC(=O)NC1=O)C2=O (stereo partly drawn)
-- reply 0.01 to 0.025 µM

-- ask Now consider Cn1c2c(c3ccc(OCCCN4CCCN(c5ccc(C(=O)N[C@H]6CC[C@H](Oc7ccc(C#N)c(Cl)c7)CC6)nn5)CC4)cc31)C(=O)N(C1CCC(=O)NC1=O)C2=O (stereo partly drawn) and answer again.
-- reply 0.025 to 0.1 µM

-- ask Now consider CC1(C)[C@H](NC(=O)c2ccc(N3CCN(CCOc4ccc5c6c(sc5c4)C(=O)N(C4CCC(=O)NC4=O)C6=O)CC3)cn2)C(C)(C)[C@H]1Oc1ccc(C#N)c(Cl)c1 (stereo partly drawn) and answer again.
-- reply 0.025 to 0.1 µM

-- ask Now this one: Cn1c2c(c3ccc(OCCN4CCC5(CC4)CN(c4ccc(C(=O)N[C@H]6CC[C@H](Oc7ccc(C#N)c(Cl)c7)CC6)nn4)C5)cc31)C(=O)N(C1CCC(=O)NC1=O)C2=O (stereo partly drawn)
-- reply 0.01 to 0.025 µM

-- ask Would you mind doing Cn1c2c(c3ccc(NC(=O)CN4CCN(c5ccc(C(=O)N[C@H]6C(C)(C)[C@H](Oc7ccc(C#N)c(Cl)c7)C6(C)C)nn5)CC4)cc31)C(=O)N(C1CCC(=O)NC1=O)C2=O (stereo partly drawn) as well?
-- reply 0.025 to 0.1 µM

Origin of values: patent US20250197409A1
